system: ryegrass, Italian (Italian ryegrass, Lolium multiflorum); test: Test A postemergence; type: in vivo; conditions: Postemergence, 500 g ai/ha; 0 to 100 scale where 0 is no effect and 100 is complete control
Recorded Plant response rating, Ryegrass, Italian by entry
Give the figure by itself; no unit, no explanation.

Name the recorded Plant response rating, Ryegrass, Italian for O=C1NCC(c2ccc(Oc3ccccc3)cc2)C1C(=O)Nc1ccccc1F (racemic) [Compound 534] . 0

====

// plant injury at 15.625 g/ha lookup, one value per entry
test system: corn (Zea mays); assay: Test G Pre-Emergence Protocol; type: in vivo; settings: Zea mays, pre-emergence, 312 h, 15.625 g ai/ha, evaluated after 13 days, read-out: Corn damage rating (100=total damage to plant; 0=no damage to plant)
Write the answer as a number in %, unit excluded.

Sample records with plant injury at 15.625 g/ha:
- Compound: "CC(C)c1cc([C@H]2CN(C)C(=O)[C@@H]2C(=O)Nc2cccc(F)c2F)cnn1 (racemic)"
  Observed property: "plant injury at 15.625 g/ha"
  Meas value: 0
- Compound: "CN1CC(c2ccc(Cl)c([N+](=O)[O-])c2)C(C(=O)Nc2cccc(F)c2F)C1=O (centres unmarked)"
  Observed property: "plant injury at 15.625 g/ha"
  Meas value: 0
- Compound: "CN1C[C@H](c2cccc(C(F)(F)F)c2)[C@@H](C(=O)Nc2cnccc2S(C)(=O)=O)C1=O (racemic)"
  Observed property: "plant injury at 15.625 g/ha"
  Meas value: 0

What is its plant injury at 15.625 g/ha for corn (Zea mays)? Entry: CN1C[C@@H](c2ccc(CF)cc2)[C@H](C(=O)Nc2cccc(F)c2F)C1=O (racemic) 0

// map Cc1ccc(NC(=O)[C@H]2C(=O)N(C)C[C@@H]2c2ccc(C(F)(F)F)cc2)nc1 (racemic) to recorded plant injury at 15.625 g/ha (system: corn (Zea mays)) 20
